The measured values listed here are drawn from patent US20090291081A1.

Molecular target: human IL-1β (human, UniProt P01584 117-269)
Experiment: cell-based or functional assay
quantity.name: IL-1β IC50 (nM)
Respond with the bare value in nM.

binder	measurement.units	IL-1β IC50
ABT2-108-603/ABT1-122 hu IgG1/K wt (bispecific antibody, V domains shown) VH: EVQLLESGGGLVQPGGSLRLSCAASGFTFAEYTMMWVRQAPGKGLEWVSRITDAGKNTYYADSVKGRFTISRDNSKNTLYLQMNSLRAEDTAVYYCAKYTGRVGVHHLFDYWGQGTLVTVSS VL: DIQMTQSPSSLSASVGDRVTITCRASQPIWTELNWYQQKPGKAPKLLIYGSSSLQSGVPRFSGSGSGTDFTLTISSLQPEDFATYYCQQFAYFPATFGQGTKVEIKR	nM	10

Below: the item to evaluate.
Value of measured IL-1β IC50 for the entry ABT2-65-17/ABT1-141-25 hu IgG1/K wt (bispecific antibody, V domains shown) VH: EVQLLESGGGLVQPGGSLRLSCVASGFTFEDYQMGWVRQAPGKGLEWVSSISAMGNRTYYADSVKGRFTISRDDSKNTLYLQMNSLRAEDTAVYYCAQNLVRLGRSRWMFDYWGQGTLVTVSS VL: DIQMTQSPSSLSASVGDRVTITCRASQWIQKQLAWYQQKPGKAPKLLIYSSSYLQSGVPSRFSGSGSGTDFTLTISSLQPEDFATYYCQQHLRVPMTFGQGTKVEIKR : 1
